Target: Alpha-1D adrenergic receptor (Homo sapiens, UniProt P25100)
Sequence (P25100 whole entry): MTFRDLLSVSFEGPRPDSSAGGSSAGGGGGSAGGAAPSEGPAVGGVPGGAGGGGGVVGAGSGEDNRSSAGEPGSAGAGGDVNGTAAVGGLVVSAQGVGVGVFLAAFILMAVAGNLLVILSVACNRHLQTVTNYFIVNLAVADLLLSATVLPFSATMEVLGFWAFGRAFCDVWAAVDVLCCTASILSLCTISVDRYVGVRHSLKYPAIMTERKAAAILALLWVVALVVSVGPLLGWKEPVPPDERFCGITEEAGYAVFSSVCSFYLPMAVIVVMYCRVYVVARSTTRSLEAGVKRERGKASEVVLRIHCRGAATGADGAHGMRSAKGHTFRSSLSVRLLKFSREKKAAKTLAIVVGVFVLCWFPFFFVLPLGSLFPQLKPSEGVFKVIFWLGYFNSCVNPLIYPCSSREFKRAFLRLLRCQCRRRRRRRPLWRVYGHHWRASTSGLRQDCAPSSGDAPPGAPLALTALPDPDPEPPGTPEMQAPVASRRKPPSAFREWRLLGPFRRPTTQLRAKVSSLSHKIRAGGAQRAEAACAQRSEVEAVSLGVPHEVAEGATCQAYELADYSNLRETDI
pKi: −log10 of the molar value.
A collection of molecules and their measured pKi

| MOLECULE | TARGET_OF_ASSAY | pKi |
| --- | --- | --- |
| CC(C)Oc1ccccc1N1CCN([C@H]2CC[C@@H](NS(=O)(=O)c3cccc(Cl)c3F)CC2)CC1 | Alpha-1D adrenergic receptor (Homo sapiens, UniProt P25100) | 8.21 |
| COc1ccc(Cl)cc1S(=O)(=O)N[C@H]1CC[C@@H](N2CCN(c3ccccc3OCC3CC3)CC2)CC1 | Alpha-1D adrenergic receptor (Homo sapiens, UniProt P25100) | 7.32 |
| COc1ccc(S(=O)(=O)N[C@H]2CC[C@@H](N3CCN(c4ccccc4OC(C)C)CC3)CC2)cc1OC (stereo in doubt; form 2) | Alpha-1D adrenergic receptor (Homo sapiens, UniProt P25100) | 7.72 |
| CCOc1ccccc1OCCN[C@H](C)Cc1ccc(OC)c(S(N)(=O)=O)c1 | Alpha-1D adrenergic receptor (Homo sapiens, UniProt P25100) | 9.70 |

---

A collection of molecules and their measured log10 Ki
molecular target: D(2) dopamine receptor (Homo sapiens, UniProt P14416); test: Binding affinity to human dopamine D2 receptor
Sequence (P14416 whole entry): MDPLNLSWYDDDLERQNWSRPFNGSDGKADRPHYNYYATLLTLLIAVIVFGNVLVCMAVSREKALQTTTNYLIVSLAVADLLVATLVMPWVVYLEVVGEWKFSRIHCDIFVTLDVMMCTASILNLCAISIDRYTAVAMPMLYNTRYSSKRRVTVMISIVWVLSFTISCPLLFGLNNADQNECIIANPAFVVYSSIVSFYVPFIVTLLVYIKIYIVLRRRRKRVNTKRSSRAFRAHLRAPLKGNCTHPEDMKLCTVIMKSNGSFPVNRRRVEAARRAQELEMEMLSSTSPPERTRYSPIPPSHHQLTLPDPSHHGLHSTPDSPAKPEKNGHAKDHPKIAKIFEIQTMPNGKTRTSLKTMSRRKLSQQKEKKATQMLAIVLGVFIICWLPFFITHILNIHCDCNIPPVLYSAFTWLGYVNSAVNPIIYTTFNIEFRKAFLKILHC
RECORDED_ENDPOINT: log10 Ki (log10 of the value in nM)

| MOLECULE | TARGET_OF_ASSAY | log10 Ki |
| --- | --- | --- |
| COc1ccc(F)cc1S(=O)(=O)N[C@H]1CC[C@H](N2CCN(c3ccccc3OC(C)C)CC2)CC1 | D(2) dopamine receptor (Homo sapiens, UniProt P14416) | 2.14 |
| COc1ccc(F)cc1S(=O)(=O)N[C@H]1CC[C@@H](N2CCN(c3ccccc3OC(C)C)CC2)CC1 | D(2) dopamine receptor (Homo sapiens, UniProt P14416) | 2.24 |
| CC(C)Oc1ccccc1N1CCN([C@H]2CC[C@H](NS(=O)(=O)c3cccc(F)c3)CC2)CC1 | D(2) dopamine receptor (Homo sapiens, UniProt P14416) | 1.81 |
| CC(C)Oc1ccccc1N1CCN([C@H]2CC[C@@H](NS(=O)(=O)c3ccccc3C#N)CC2)CC1 | D(2) dopamine receptor (Homo sapiens, UniProt P14416) | 1.74 |
| CC(C)Oc1ccccc1N1CCN([C@H]2CC[C@@H](NS(=O)(=O)c3cnc(Cl)c(Br)c3)CC2)CC1 | D(2) dopamine receptor (Homo sapiens, UniProt P14416) | 1.79 |
| CC(C)Oc1ccccc1N1CCN([C@H]2CC[C@@H](NS(=O)(=O)c3cccc(F)c3)CC2)CC1 | D(2) dopamine receptor (Homo sapiens, UniProt P14416) | 1.87 |
| COc1ccc(S(=O)(=O)N[C@H]2CC[C@@H](N3CCN(c4ccccc4OC(C)C)CC3)CC2)cc1OC (stereo in doubt; form 2) | D(2) dopamine receptor (Homo sapiens, UniProt P14416) | 2.91 |
| CC(C)Oc1ccccc1N1CCN([C@H]2CC[C@@H](NS(=O)(=O)c3ccccc3F)CC2)CC1 | D(2) dopamine receptor (Homo sapiens, UniProt P14416) | 2.17 |

---

Alpha-1B adrenergic receptor (Homo sapiens, UniProt P35368) measurements of log10 of Ki, listed per entry.
Sequence (P35368 whole entry): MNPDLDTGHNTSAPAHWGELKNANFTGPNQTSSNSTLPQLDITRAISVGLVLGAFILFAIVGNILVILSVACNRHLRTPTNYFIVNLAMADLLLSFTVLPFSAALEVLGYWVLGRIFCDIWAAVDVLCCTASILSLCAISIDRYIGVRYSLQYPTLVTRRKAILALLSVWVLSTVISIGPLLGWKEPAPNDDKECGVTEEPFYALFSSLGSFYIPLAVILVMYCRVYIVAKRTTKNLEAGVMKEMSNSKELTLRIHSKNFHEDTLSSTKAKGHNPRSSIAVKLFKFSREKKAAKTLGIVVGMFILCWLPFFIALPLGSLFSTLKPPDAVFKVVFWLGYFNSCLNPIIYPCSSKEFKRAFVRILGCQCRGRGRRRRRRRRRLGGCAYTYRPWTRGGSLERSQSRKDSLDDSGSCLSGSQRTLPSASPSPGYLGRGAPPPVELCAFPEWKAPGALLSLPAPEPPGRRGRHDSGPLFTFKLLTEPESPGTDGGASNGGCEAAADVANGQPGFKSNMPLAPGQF
RECORDED_ENDPOINT: log10 of Ki (log10 of the value in nM)

| MOLECULE | RECORDED_ENDPOINT | MEAS_VALUE |
| --- | --- | --- |
| CC(C)Oc1ccccc1N1CCN([C@H]2CC[C@@H](NS(=O)(=O)c3cc(Cl)ccc3F)CC2)CC1 | log10 of Ki | 3.27 |
| COc1ccc(S(=O)(=O)N[C@H]2CC[C@@H](N3CCN(c4ccccc4OCC4CC4)CC3)CC2)cc1OC | log10 of Ki | 2.56 |
| COc1ccc(OC)c(S(=O)(=O)N[C@H]2CC[C@@H](N3CCN(c4ccccc4OC(C)C)CC3)CC2)c1 | log10 of Ki | 2.18 |
| COc1ccc(Cl)cc1S(=O)(=O)N[C@H]1CC[C@@H](N2CCN(c3ccccc3OC(C)C)CC2)CC1 (stereo in doubt; form 2) | log10 of Ki | 2.60 |
| CCOc1ccccc1OCCN[C@H](C)Cc1ccc(OC)c(S(N)(=O)=O)c1 | log10 of Ki | 0.30 |
| COc1ccc(S(=O)(=O)N[C@H]2CC[C@@H](N3CCN(c4ccccc4OC(C)C)CC3)CC2)cc1OC (stereo in doubt; form 2) | log10 of Ki | 2.05 |

---

target: D(2) dopamine receptor (Homo sapiens, UniProt P14416); experiment: Binding affinity to human dopamine D2 receptor
pKi: −log10 of the molar value.
A collection of compounds and their measured pKi

| SMILES_STRUCTURE | TARGET_OF_ASSAY | pKi |
| --- | --- | --- |
| COc1ccc(S(=O)(=O)N[C@H]2CC[C@H](N3CCN(c4ccccc4OC(C)C)CC3)CC2)cc1OC | D(2) dopamine receptor (Homo sapiens, UniProt P14416) | 7.21 |
| COc1ccc(Cl)cc1S(=O)(=O)N[C@H]1CC[C@@H](N2CCN(c3ccccc3OCC3CC3)CC2)CC1 | D(2) dopamine receptor (Homo sapiens, UniProt P14416) | 6.23 |
| COc1ccc(Br)cc1S(=O)(=O)N[C@H]1CC[C@H](N2CCN(c3ccccc3OC(C)C)CC2)CC1 | D(2) dopamine receptor (Homo sapiens, UniProt P14416) | 7.44 |
| Cc1ccc(S(=O)(=O)N[C@H]2CC[C@@H](N3CCN(c4ccccc4OC(C)C)CC3)CC2)cc1Cl | D(2) dopamine receptor (Homo sapiens, UniProt P14416) | 7.22 |
| O=S(=O)(N[C@H]1CC[C@@H](N2CCN(c3ccccc3OCC3CC3)CC2)CC1)c1cc(Cl)ccc1F | D(2) dopamine receptor (Homo sapiens, UniProt P14416) | 6.37 |
| CC(C)Oc1ccccc1N1CCN([C@H]2CC[C@@H](NS(=O)(=O)c3ccc(Cl)cc3Cl)CC2)CC1 | D(2) dopamine receptor (Homo sapiens, UniProt P14416) | 7.38 |
| CC(C)Oc1ccccc1N1CCN([C@H]2CC[C@H](NS(=O)(=O)c3ccc(OC(F)(F)F)cc3)CC2)CC1 | D(2) dopamine receptor (Homo sapiens, UniProt P14416) | 7.24 |
| COc1ccc(OC)c(S(=O)(=O)N[C@H]2CC[C@@H](N3CCN(c4ccccc4OC(C)C)CC3)CC2)c1 | D(2) dopamine receptor (Homo sapiens, UniProt P14416) | 7.09 |
| CC(C)Oc1ccccc1N1CCN([C@H]2CC[C@@H](NS(=O)(=O)c3ccc(F)cc3)CC2)CC1 | D(2) dopamine receptor (Homo sapiens, UniProt P14416) | 7.16 |
| CC(C)Oc1ccccc1N1CCN([C@H]2CC[C@H](NS(=O)(=O)c3ccc(S(C)(=O)=O)cc3)CC2)CC1 | D(2) dopamine receptor (Homo sapiens, UniProt P14416) | 7.85 |
| CC(C)Oc1ccccc1N1CCN([C@H]2CC[C@H](NS(=O)(=O)c3cccc(Cl)c3F)CC2)CC1 | D(2) dopamine receptor (Homo sapiens, UniProt P14416) | 6.57 |
| CC(C)Oc1ccccc1N1CCN([C@H]2CC[C@@H](NS(=O)(=O)Cc3ccccc3)CC2)CC1 | D(2) dopamine receptor (Homo sapiens, UniProt P14416) | 7.62 |
| Cc1ccc(S(=O)(=O)N[C@H]2CC[C@H](N3CCN(c4ccccc4OC(C)C)CC3)CC2)cc1Cl | D(2) dopamine receptor (Homo sapiens, UniProt P14416) | 7.28 |
| CC(C)Oc1ccccc1N1CCN([C@H]2CC[C@H](NS(=O)(=O)c3ccccc3[N+](=O)[O-])CC2)CC1 | D(2) dopamine receptor (Homo sapiens, UniProt P14416) | 7.07 |
| CC(C)Oc1ccccc1N1CCN([C@H]2CC[C@@H](NS(=O)(=O)c3cccnc3)CC2)CC1 | D(2) dopamine receptor (Homo sapiens, UniProt P14416) | 7.82 |
| COc1ccc([N+](=O)[O-])cc1S(=O)(=O)N[C@H]1CC[C@@H](N2CCN(c3ccccc3OC(C)C)CC2)CC1 | D(2) dopamine receptor (Homo sapiens, UniProt P14416) | 7.35 |
| COc1ccc(C)cc1S(=O)(=O)N[C@H]1CC[C@@H](N2CCN(c3ccccc3OC(C)C)CC2)CC1 | D(2) dopamine receptor (Homo sapiens, UniProt P14416) | 6.96 |
| COc1ccc(C)cc1S(=O)(=O)N[C@H]1CC[C@H](N2CCN(c3ccccc3OC(C)C)CC2)CC1 | D(2) dopamine receptor (Homo sapiens, UniProt P14416) | 7.30 |
| CC(C)Oc1ccccc1N1CCN([C@H]2CC[C@H](NS(=O)(=O)c3ccccc3F)CC2)CC1 | D(2) dopamine receptor (Homo sapiens, UniProt P14416) | 7.51 |
| COc1ccc(C(F)(F)F)cc1S(=O)(=O)N[C@H]1CC[C@H](N2CCN(c3ccccc3OC(C)C)CC2)CC1 | D(2) dopamine receptor (Homo sapiens, UniProt P14416) | 8.72 |
| COc1ccncc1S(=O)(=O)N[C@H]1CC[C@H](N2CCN(c3ccccc3OC(C)C)CC2)CC1 | D(2) dopamine receptor (Homo sapiens, UniProt P14416) | 7.37 |
| CC(C)Oc1ccccc1N1CCN([C@H]2CC[C@@H](NS(=O)(=O)c3ccc(Cl)cc3F)CC2)CC1 | D(2) dopamine receptor (Homo sapiens, UniProt P14416) | 6.89 |
| CC(C)Oc1ccccc1N1CCN([C@H]2CC[C@H](NS(=O)(=O)Cc3ccccc3)CC2)CC1 | D(2) dopamine receptor (Homo sapiens, UniProt P14416) | 7.15 |
| COc1ccc([N+](=O)[O-])cc1S(=O)(=O)N[C@H]1CC[C@H](N2CCN(c3ccccc3OC(C)C)CC2)CC1 | D(2) dopamine receptor (Homo sapiens, UniProt P14416) | 7.74 |
| CC(C)Oc1ccccc1N1CCN([C@H]2CC[C@H](NS(=O)(=O)c3cccnc3)CC2)CC1 | D(2) dopamine receptor (Homo sapiens, UniProt P14416) | 7.26 |
| COc1ccc(C(F)(F)F)cc1S(=O)(=O)N[C@H]1CC[C@@H](N2CCN(c3ccccc3OC(C)C)CC2)CC1 | D(2) dopamine receptor (Homo sapiens, UniProt P14416) | 6.71 |
| CC(C)Oc1ccccc1N1CCN([C@H]2CC[C@@H](NS(=O)(=O)c3ccc(S(C)(=O)=O)cc3)CC2)CC1 | D(2) dopamine receptor (Homo sapiens, UniProt P14416) | 6.91 |
| COc1ccncc1S(=O)(=O)N[C@H]1CC[C@@H](N2CCN(c3ccccc3OC(C)C)CC2)CC1 | D(2) dopamine receptor (Homo sapiens, UniProt P14416) | 7.04 |
| CC(C)Oc1ccccc1N1CCN([C@H]2CC[C@@H](NS(=O)(=O)c3ccccc3)CC2)CC1 | D(2) dopamine receptor (Homo sapiens, UniProt P14416) | 6.72 |
| CC(C)Oc1ccccc1N1CCN([C@H]2CC[C@H](NS(=O)(=O)c3ccc(F)cc3)CC2)CC1 | D(2) dopamine receptor (Homo sapiens, UniProt P14416) | 7.57 |
| CC(C)Oc1ccccc1N1CCN([C@H]2CC[C@@H](NS(=O)(=O)c3ccccc3[N+](=O)[O-])CC2)CC1 | D(2) dopamine receptor (Homo sapiens, UniProt P14416) | 7.29 |
| CC(C)Oc1ccccc1N1CCN([C@H]2CC[C@@H](NS(=O)(=O)c3ccc(OC(F)(F)F)cc3)CC2)CC1 | D(2) dopamine receptor (Homo sapiens, UniProt P14416) | 6.37 |
| CC(C)Oc1ccccc1N1CCN([C@H]2CC[C@H](NS(=O)(=O)c3ccccc3)CC2)CC1 | D(2) dopamine receptor (Homo sapiens, UniProt P14416) | 7.47 |
